Target: T1, human BTLA expressed on cells (human, UniProt Q7Z6A9 31-289)
T1 construct: whole, on cells
Assay: FACS on 293F cells expressing hBTLA
Field: EC50. Provide a value for each of the binders that follow.
Numbers only here, please. The scale is µg/mL.

// humanized antibody hu19 (antibody, V domains shown, It was detected with an anti-human IgG4 secondary antibody) VH: QVQLVQSGAEVKKPGASVKLSCKASGYNFKHTYAHWVRQAPGQGLEWIGRIDPANGNTKYDPKFQGRATMTADTASNTAYLELSSLRSEDTAVYYCVADHYGSSLLDYWGQGTLVTVSS VL: DIVMTQTPLSLSVTPGQPASISCKSSQSLLDSDGKTYLNWFQQRPGQSPRRLMHLVSKLDSGVPDRFSGSGSGTDFTLKISRVEAEDVGVYYCWQGTYFPYTFGQGTKLEIK : EC50 value = 0.0951

For this binder ( chimeric antibody ch12 (antibody, human IgG4, V domains shown, T0010 gives only CDR numbers (HCDR 13-15, LCDR 10-12)) VH: EVQLQQSGADLVKPGASVKLSCTASGFNFKHTYAHWVKQRPEQGLEWIGRIDPANGNTKYDPKFQGKATMTADTASNAAFLQLSSLTSEDTAVYYCVADHYGSSLLDYWGQGTSLTVSS VL: EVVMTQTPLTLSVTIGQSASISCKSSQSLLDSDGKTYLNWFLQRPGQSPKRLMHLVSKLDSGVPDRFTGSGSGTDFTLKISGVEAEDLGVYYCWQGTYFPYTFGGGTKLETK ), measured EC50 is 0.0881

// humanized antibody hu18 (antibody, IgG4, V domains shown, also called JS004; recombinant human anti-BTLA antibody) VH: QVQLVQSGAEVKKPGASVKLSCKASGYNFKHTYAHWVRQAPGQGLEWIGRIDPANGNTKYDPKFQGRATMTADTASNTAYLELSSLRSEDTAVYYCVADHYGSSLLDYWGQGTLVTVSS VL: DVVMTQTPLSLSVTPGQPASISCKSSQSLLDSDGKTYLNWFQQRPGQSPRRLIYLVSKLDSGVPDRFSGSGSGTDFTLKISRVEAEDVGVYYCWQGTYFPYTFGQGTKLEIK : EC50 value = 0.0893

Please fill in: EC50 reported for humanized antibody hu17 (antibody, V domains shown, also called hull [sic]; humanized antibody 17) VH: QVQLVQSGAEVKKPGASVKLSCKASGYNFKHTYAHWVRQAPGQGLEWIGRIDPANGNTKYDPKFQGRATMTADTASNTAYLELSSLRSEDTAVYYCVADHYGSSLLDYWGQGTLVTVSS VL: DIVMTQTPLSLSVTPGQPASISCKSSQSLLDSDGKTYLNWFQQRPGQSPRRLIYLVSKLDSGVPDRFSGSGSGTDFTLKISRVEAEDVGVYYCWQGTYFPYTFGQGTKLEIK = 0.0967
